Subject of test: MSI1 full-length (mouse, UniProt Q61474 1-362)
Sequence (Q61474 whole entry): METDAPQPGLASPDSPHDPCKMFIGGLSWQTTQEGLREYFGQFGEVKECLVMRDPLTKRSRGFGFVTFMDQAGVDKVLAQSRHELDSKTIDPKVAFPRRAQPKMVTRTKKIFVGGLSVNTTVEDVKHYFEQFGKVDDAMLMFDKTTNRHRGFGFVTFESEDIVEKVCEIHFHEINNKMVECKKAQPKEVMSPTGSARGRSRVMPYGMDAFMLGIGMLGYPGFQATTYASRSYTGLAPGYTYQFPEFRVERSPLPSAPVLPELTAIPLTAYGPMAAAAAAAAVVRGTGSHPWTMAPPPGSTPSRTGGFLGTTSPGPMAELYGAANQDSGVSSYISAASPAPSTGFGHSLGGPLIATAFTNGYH
Test method notes: nsRBNS (natural sequence RNA bind-n-seq); RBNS binding buffer (assumed for nsRBNS): 25 mM Tris pH 7.5, 150 mM KCl, 3 mM MgCl2, 0.01% Triton X-100, 500 ug/ml BSA, 20 U/ml SUPERase-In, 4 C; UNK is unkempt and MSI1 is Musashi-1; names of the RNAs are library labels; protein concentration not given here; high values mean tight binding
The full ranking holds about 5,800 sequences; the median of “enrichment r” is about 0.54, and the highest 2% start at about 16. Only a selection was taken, and the highest values are over-represented in it overall.
Exercise: state measured binding signal for each of the binders provided.
Value expressed in enrichment R; do not type the unit.

Ask: Request the reported binding signal associated with chr1:6224442:6224573:-|3pUTR|ENSG00000116237|msi1_unk|FALSE|overlapping (ssRNA) RNA: GGGAGUUCUACAGUCCGACGAUCCUAUACAAUUUUAAAAAUACUUCCUCAUAGGAUGCUUUGGCCCUUCAUCUAUUUAAUCAUAGCUACAUACCUAUUUUUUAUAAGUAGCAGUACACAUUCAAAGGGGUAUUCCUAGCUCAACAACAGAGGAUUGAGCAUCA
Result: 7.66

Ask: Then what about the binder chr4:138169334:138169435:-|3pUTR|ENSG00000151012|msi1|total|mutant (ssRNA) RNA: GGGAGUUCUACAGUCCGACGAUCCCAUUUCACGCAGAAAAAAAGUCAGCCAGUAAUUAAGAAAAAAAGUGAUGGAGAUUAAGCCGUAUUUUGGCUUAUUUUCCGGACUCAUCAUGAGAAGACACAGUUCCUUUAAUCAGGAAACAACAGAGGAUUGAGCAUCA ?
Result: 0.883

Ask: And chr19:9526975:9527076:-|3pUTR|ENSG00000130818|unk|total|mutant (ssRNA) RNA: GGGAGUUCUACAGUCCGACGAUCCCUCUCAGACCUUCCAUCAUUACUAUAUUUCACUUUUAUGCCUAUAAACACACACAAAUCCGCAUAUGUAAUCUAAUACAUUGCCGCUAUUUUUCAGAAGUUAUCAGAUCAAUUAAGUAUCAACAGAGGAUUGAGCAUCA ?
Result: 9.57

Ask: How about this binder: chr7:158734047:158734148:-|3pUTR|ENSG00000117868|msi1_unk|total|mutant (ssRNA) RNA: GGGAGUUCUACAGUCCGACGAUCCUACCCGGAACACACCCUCUCACAGACGUACCAAUGUUAUUUUUAUAAUUUCAUGGAUUCCGUUAUACAUACCUUAACCGUUUUAUAAAAUUGUUGACAUUUCAGGCAAAUUUGGCCAAUCAACAGAGGAUUGAGCAUCA
Result: 0.582

Ask: // repeat for chr12:68839811:68839877:+|CDS_3pUTR|ENSG00000135679|msi1_unk|FALSE|overlapping (ssRNA) RNA: GGGAGUUCUACAGUCCGACGAUCAUAAGCCCUGCCCAGUAUGUAGACAACCAAUUCAAAUGAUUGUGCUAACUUAUUUCCCCUAGUUGACCUGUCUAUAAGAGAAUUAUAUAUUUCUAACUAUAUAACCCUAGGAAUUUAGACCAACAGAGGAUUGAGCAUCA and report
Result: 3.21

Ask: Similarly, chr13:79312715:79312816:-|3pUTR|ENSG00000139746|unk|total|mutant (ssRNA) RNA: GGGAGUUCUACAGUCCGACGAUCCCUUGUGAUUUAUUAUAAUGCCGCAGCAUACUUAUAAAAGUGGUCUGUGCUGAGUCAGACCGAGAGCCCAGCCCAUCCGAAACACAUCAUAAUUUAAGAAUAUGAUGCAGAAUGCCCUUACAACAGAGGAUUGAGCAUCA ?
Result: 1.96

Ask: Same thing, different binder: chr2:165880514:165880799:-|CDS|ENSG00000123607|control|control|control (ssRNA) RNA: GGGAGUUCUACAGUCCGACGAUCGAUGGCAUGGAAAUAUAGCAAUCGGACAAAUCCGGCAGUAGGUGAGUUUGGCAAUCACCUAGAUUUUUCACAGAAAAAUUAUGUUGUAUUUAUUAAUUUUCAUUUAAAUGCAUUUGAUUUCAACAGAGGAUUGAGCAUCA
Result: 0.379
